system_tested: UniProtKB P11712
Sequence (P11712 whole entry): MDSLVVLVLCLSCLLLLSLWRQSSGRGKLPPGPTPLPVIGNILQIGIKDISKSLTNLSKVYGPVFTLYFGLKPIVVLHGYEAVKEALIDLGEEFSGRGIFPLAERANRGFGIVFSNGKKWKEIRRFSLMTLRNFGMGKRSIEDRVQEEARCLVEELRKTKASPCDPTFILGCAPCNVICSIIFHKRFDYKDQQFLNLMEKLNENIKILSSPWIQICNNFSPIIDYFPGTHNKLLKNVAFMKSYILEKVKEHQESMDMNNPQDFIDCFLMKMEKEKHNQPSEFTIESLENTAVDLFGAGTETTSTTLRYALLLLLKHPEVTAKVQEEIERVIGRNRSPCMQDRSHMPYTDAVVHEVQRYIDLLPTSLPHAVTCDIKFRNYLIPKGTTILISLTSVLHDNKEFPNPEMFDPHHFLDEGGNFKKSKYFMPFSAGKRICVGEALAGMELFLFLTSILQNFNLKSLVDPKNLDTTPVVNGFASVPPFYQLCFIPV
assay_explanation: Inhibition of CYP2C9 (unknown origin) assessed as tolbutamide hydroxylation to hydrocytolbutamide at 10 uM by cocktail inhibition assay relative to control
measurement_conditions: probe tolbutamide (hydroxylation to hydroxytolbutamide)
reported_metric: inhibition at 10 µM (%)
Please give a number only; it is taken to be in %.

Example results:
{"test_smiles": "CNC(=O)c1cc(-n2ncc3cc(Nc4c(F)cccc4Cl)c(C)nc32)cs1", "reported_metric": "inhibition at 10 µM", "result_value": 61}
{"test_smiles": "O=C(NC1COC1)c1cc(-n2ncc3cc(Nc4ccccc4Cl)c(F)cc32)cs1", "reported_metric": "inhibition at 10 µM", "result_value": 41}
{"test_smiles": "O=C(NC1COC1)c1cc(-n2ncc3cc(Nc4ccccc4Cl)cnc32)cs1", "reported_metric": "inhibition at 10 µM", "result_value": 76}
{"test_smiles": "CNC(=O)c1cc(-n2ncc3cc(Nc4ccccc4Cl)cnc32)cs1", "reported_metric": "inhibition at 10 µM", "result_value": 66}

Now for a further compound.
State, for UniProtKB P11712, measured inhibition at 10 µM of the compound listed here: CNC(=O)c1cc(-n2ncc3cc(Nc4ccccc4Cl)c(F)cc32)cs1
39
